- Assayed system: beta-catenin/TCF4 engagement (Homo sapiens)
- Construct: expressed in transfected cells; host or cells: HEK293
- Sequence (P35222 whole entry): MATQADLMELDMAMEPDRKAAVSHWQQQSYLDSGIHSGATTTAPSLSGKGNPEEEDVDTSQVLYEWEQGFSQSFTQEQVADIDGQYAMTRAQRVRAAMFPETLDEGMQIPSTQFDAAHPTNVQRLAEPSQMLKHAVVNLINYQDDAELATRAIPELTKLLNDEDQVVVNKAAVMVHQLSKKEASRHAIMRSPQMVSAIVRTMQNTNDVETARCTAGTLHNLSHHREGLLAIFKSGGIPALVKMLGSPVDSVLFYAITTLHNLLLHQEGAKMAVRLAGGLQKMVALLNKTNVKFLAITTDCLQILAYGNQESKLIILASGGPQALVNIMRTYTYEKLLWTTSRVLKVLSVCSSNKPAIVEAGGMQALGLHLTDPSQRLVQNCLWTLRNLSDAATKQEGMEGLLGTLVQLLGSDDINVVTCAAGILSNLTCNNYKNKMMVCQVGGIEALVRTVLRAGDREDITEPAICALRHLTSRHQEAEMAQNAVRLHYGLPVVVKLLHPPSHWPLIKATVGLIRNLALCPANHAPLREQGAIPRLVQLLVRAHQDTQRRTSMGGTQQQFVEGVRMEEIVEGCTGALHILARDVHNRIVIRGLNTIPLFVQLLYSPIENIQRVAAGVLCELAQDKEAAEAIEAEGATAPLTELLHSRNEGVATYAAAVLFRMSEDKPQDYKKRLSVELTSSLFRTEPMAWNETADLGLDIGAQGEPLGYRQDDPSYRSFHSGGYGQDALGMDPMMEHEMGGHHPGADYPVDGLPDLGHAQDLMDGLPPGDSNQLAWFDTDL
- Assay info: Nano-BRET target engagement assay (B-cat-Halo & TCF4-Luc in HEK293 cells)
- Type: cell-based
- Details: absolute IC50; read-out: NanoBRET Abs IC50
pIC50: −log10 of the molar value.
Measured property: pIC50

Ask | For the compound shown here, CC(=O)N1CCC[C@]12CC=CCCCC1(CCCC=CCCCOC(=O)N3CC[C@@](C(=O)N[C@@H](Cc4ccccc4C(F)(F)F)C(=O)N[C@@H](Cc4c(C(F)(F)F)[nH]c5ccccc45)C(=O)N[C@@H](C)C(N)=O)(C3)NC(=O)[C@H](CC(C)C)NC(=O)[C@H](Cc3ccccc3)NC(=O)[C@H](C)NC(=O)[C@H](CCC(N)=O)NC(=O)[C@H](Cc3cccc(C(=O)O)c3)NC(=O)[C@H](CC(=O)O)NC1=O)NC(=O)[C@H](CC(C)(C)C)NC(=O)[C@H](CC(=O)O)NC2=O (stereo partly shown) , give the reported pIC50.
Reply | < 4.70
